- System: Wolbachia pipientis
- experimentNotes: Anti-Wolbachia Cell-Based Screen
- Type: functional
- Set-up: scale not given: in the data most compounds retested in dose-response had high values
- conditionInfo: 5 µM
Screen size: about 48,000 compounds; about 13,000 (27%) showed an effect of 50% or more. The list shows a part of the results.

{"molecule": "O=C(c1cc(C2CC2)[nH]n1)N1CCN(c2nccs2)CC1", "systemUnderTest": "Wolbachia pipientis", "readoutUnit": "%", "Percent Effect": -6.646}
{"molecule": "Cc1cc(-c2cnc(N3CCCC3)nc2-c2ccc(C)s2)on1", "systemUnderTest": "Wolbachia pipientis", "readoutUnit": "%", "Percent Effect": 81.04}
{"molecule": "CCCS(=O)(=O)N1Cc2nccn2CC(CN2CCCC2)C1.O=C(O)C(F)(F)F (centres undefined)", "systemUnderTest": "Wolbachia pipientis", "readoutUnit": "%", "Percent Effect": -1.434}
{"molecule": "O=C(c1cc2c([nH]c1=O)CCC2)N1CCCC1c1ccc(F)cc1 (centres undefined)", "systemUnderTest": "Wolbachia pipientis", "readoutUnit": "%", "Percent Effect": 20.74}
{"molecule": "CN1CCN(C(=O)c2cnsn2)c2cc(F)ccc21", "systemUnderTest": "Wolbachia pipientis", "readoutUnit": "%", "Percent Effect": 151.8}
{"molecule": "O=C(NC1CCC1)c1n[nH]c2c1CNCC2", "systemUnderTest": "Wolbachia pipientis", "readoutUnit": "%", "Percent Effect": -9.631}
{"molecule": "N#Cc1ccc(CN2CCN(C(=O)c3cc(C4CC4)[nH]n3)CC2)cc1", "systemUnderTest": "Wolbachia pipientis", "readoutUnit": "%", "Percent Effect": -3.632}
{"molecule": "O=C(c1cc(C2CC2)[nH]n1)N1CCN(Cc2ccc3c(c2)OCO3)CC1", "systemUnderTest": "Wolbachia pipientis", "readoutUnit": "%", "Percent Effect": 118.4}
{"molecule": "Cc1ccc(-c2cc(-c3nc(CN4CCN(C)CC4)no3)[nH]n2)s1", "systemUnderTest": "Wolbachia pipientis", "readoutUnit": "%", "Percent Effect": -11.14}
{"molecule": "CCN(CC)S(=O)(=O)c1ccc(CCC(=O)NCc2cc(C)on2)cc1", "systemUnderTest": "Wolbachia pipientis", "readoutUnit": "%", "Percent Effect": 7.778}
{"molecule": "Cc1ccsc1CNC(=O)CC1CN(C(=O)OC(C)(C)C)C1", "systemUnderTest": "Wolbachia pipientis", "readoutUnit": "%", "Percent Effect": -25.18}
{"molecule": "O=S(=O)(C1CC1)N1Cc2nccn2CC(Cn2cncn2)C1 (centres undefined)", "systemUnderTest": "Wolbachia pipientis", "readoutUnit": "%", "Percent Effect": 116.3}
{"molecule": "CCS(=O)(=O)N1Cc2nccn2CC(Cn2nc(C)nc2C)C1 (centres undefined)", "systemUnderTest": "Wolbachia pipientis", "readoutUnit": "%", "Percent Effect": 6.553}
{"molecule": "Cc1nccc(CNC(=O)CCc2c(C)nc3cc(O)nn3c2C)n1", "systemUnderTest": "Wolbachia pipientis", "readoutUnit": "%", "Percent Effect": 98.09}
{"molecule": "CC(=O)NC(c1cc(F)ccc1F)C1CC1 (centres undefined)", "systemUnderTest": "Wolbachia pipientis", "readoutUnit": "%", "Percent Effect": 0.9467}
{"molecule": "CC(=O)NC1CCCc2c1[nH]c1ccc(F)cc21 (centres undefined)", "systemUnderTest": "Wolbachia pipientis", "readoutUnit": "%", "Percent Effect": 97.09}
{"molecule": "CCN(c1ccc(C(=O)NCc2ccnc(C)n2)cc1)C(C)C", "systemUnderTest": "Wolbachia pipientis", "readoutUnit": "%", "Percent Effect": -16.63}
{"molecule": "O=C(NC1CCCc2c1[nH]c1ccc(F)cc21)c1n[nH]c2c1CCC2 (centres undefined)", "systemUnderTest": "Wolbachia pipientis", "readoutUnit": "%", "Percent Effect": 132.4}
{"molecule": "O=C(c1cc(C2CC2)[nH]n1)N1CCN(Cc2ccncc2)CC1", "systemUnderTest": "Wolbachia pipientis", "readoutUnit": "%", "Percent Effect": 106.7}
{"molecule": "CCS(=O)(=O)N1Cc2nccn2CC(Cn2cccn2)C1 (centres undefined)", "systemUnderTest": "Wolbachia pipientis", "readoutUnit": "%", "Percent Effect": 103.5}
{"molecule": "COc1ccnc(N2CCN(C(=O)c3cc(C4CC4)[nH]n3)CC2)n1", "systemUnderTest": "Wolbachia pipientis", "readoutUnit": "%", "Percent Effect": -20.97}
{"molecule": "Cc1cc(CNC(=O)CCc2c(C)nc3cc(O)nn3c2C)no1", "systemUnderTest": "Wolbachia pipientis", "readoutUnit": "%", "Percent Effect": 92.65}
{"molecule": "CC(C)c1cc(C(=O)N2CCN(Cc3ccc(C#N)cc3)CC2)n[nH]1", "systemUnderTest": "Wolbachia pipientis", "readoutUnit": "%", "Percent Effect": 1.28}
{"molecule": "NC(=O)CCCNC(=O)CCc1cc(Br)cs1", "systemUnderTest": "Wolbachia pipientis", "readoutUnit": "%", "Percent Effect": 8.374}

---

- Tested on: Wolbachia pipientis
- experimentNotes: Anti-Wolbachia Cell-Based Screen
- Assay type: functional
- Set-up: scale not given: in the data most compounds retested in dose-response had high values
- conditionInfo: 5 µM
The campaign covered roughly 48,000 compounds. About 13,000 (27%) showed an effect of 50% or more. The list shows a part of the results.
resultType: Percent Effect (%)

{"compound": "CCn1ncc2c1CCCC2NCC1=Cc2ccccc2OC1 (stereo unspecified)", "systemUnderTest": "Wolbachia pipientis", "readoutUnit": "%", "recordedResult": -5.815}
{"compound": "Cc1cnn(CC2CCCCN2C(=O)CN(C)C2CC2)c1 (stereo unspecified)", "systemUnderTest": "Wolbachia pipientis", "readoutUnit": "%", "recordedResult": 4.023}
{"compound": "Cc1nc(CN2CCCC(N(C)CCc3cccs3)C2)no1 (stereo unspecified)", "systemUnderTest": "Wolbachia pipientis", "readoutUnit": "%", "recordedResult": 6.086}
{"compound": "CC(C)c1cnc(CN(C)C2CCN(CCc3ccccn3)C2)o1 (stereo unspecified)", "systemUnderTest": "Wolbachia pipientis", "readoutUnit": "%", "recordedResult": -3.925}
{"compound": "Cc1ccc(Oc2cc(CN)ccn2)cc1C.Cl", "systemUnderTest": "Wolbachia pipientis", "readoutUnit": "%", "recordedResult": 95.86}
{"compound": "Cc1cnn(CC2CCCN2C(=O)c2cc(C)no2)c1 (stereo unspecified)", "systemUnderTest": "Wolbachia pipientis", "readoutUnit": "%", "recordedResult": 3.618}
{"compound": "COc1cc(C)nc(N2CCN(C(C)c3nc(C4CC4)no3)CC2)n1 (stereo unspecified)", "systemUnderTest": "Wolbachia pipientis", "readoutUnit": "%", "recordedResult": 4.237}
{"compound": "NCc1ccnc(Oc2ccc(F)cc2)c1", "systemUnderTest": "Wolbachia pipientis", "readoutUnit": "%", "recordedResult": 111.3}
{"compound": "c1cc(-c2ccc3c(c2)CCC32CCNCC2)ccn1", "systemUnderTest": "Wolbachia pipientis", "readoutUnit": "%", "recordedResult": -7.075}
{"compound": "CC1CN(S(=O)(=O)c2cc(S(C)(=O)=O)ccc2Br)c2cccnc2O1 (stereo unspecified)", "systemUnderTest": "Wolbachia pipientis", "readoutUnit": "%", "recordedResult": -14.61}
{"compound": "CCOc1ccc(Oc2cc(CN)ccn2)cc1", "systemUnderTest": "Wolbachia pipientis", "readoutUnit": "%", "recordedResult": 101.1}
{"compound": "O=C1OCCN1CCNc1ncc2c(n1)CCN2c1ccccc1", "systemUnderTest": "Wolbachia pipientis", "readoutUnit": "%", "recordedResult": 15.29}
{"compound": "CC(C)C(=O)NCc1ccnc(Oc2ccc(F)cc2)c1", "systemUnderTest": "Wolbachia pipientis", "readoutUnit": "%", "recordedResult": -7.223}
{"compound": "CCc1nc(CN2CCCC(N(C)CCc3cccs3)C2)no1 (stereo unspecified)", "systemUnderTest": "Wolbachia pipientis", "readoutUnit": "%", "recordedResult": 105.7}
{"compound": "CCOC(=O)NCCC(=O)NCc1ccnc(Oc2ccc(F)cc2)c1", "systemUnderTest": "Wolbachia pipientis", "readoutUnit": "%", "recordedResult": 11.47}
{"compound": "Cc1cc(CC(=O)NCc2ccnc(OCC(F)(F)F)c2)no1", "systemUnderTest": "Wolbachia pipientis", "readoutUnit": "%", "recordedResult": -12.47}
{"compound": "Cc1cnn(CC2CCCCN2C(=O)Cc2c(C)noc2Cl)c1 (stereo unspecified)", "systemUnderTest": "Wolbachia pipientis", "readoutUnit": "%", "recordedResult": 116.9}
{"compound": "CC(CCc1cccn1C)NC(=O)Nc1cccn(C)c1=O (stereo unspecified)", "systemUnderTest": "Wolbachia pipientis", "readoutUnit": "%", "recordedResult": -4.481}
{"compound": "CCc1nc(CN(C)C2CCN(CCS(C)(=O)=O)C2)no1 (stereo unspecified)", "systemUnderTest": "Wolbachia pipientis", "readoutUnit": "%", "recordedResult": 2.202}
{"compound": "NCc1ccc(Oc2cccc(Cl)c2Cl)cc1", "systemUnderTest": "Wolbachia pipientis", "readoutUnit": "%", "recordedResult": -2.508}
{"compound": "CC(c1ccon1)N(C)C(=O)C1CCN(C2CCCCC2)CC1 (stereo unspecified)", "systemUnderTest": "Wolbachia pipientis", "readoutUnit": "%", "recordedResult": -1.584}
{"compound": "CCOc1cc(CNC(C)c2sccc2C)ccn1 (stereo unspecified)", "systemUnderTest": "Wolbachia pipientis", "readoutUnit": "%", "recordedResult": 3.225}
{"compound": "CCc1nc(CN(C)C2CCN(CCc3cccs3)C2)no1 (stereo unspecified)", "systemUnderTest": "Wolbachia pipientis", "readoutUnit": "%", "recordedResult": 104.6}
{"compound": "CC1=CC(C)(C)N(CN2C(=O)c3ccccc3C2=O)c2ccccc21", "systemUnderTest": "Wolbachia pipientis", "readoutUnit": "%", "recordedResult": -12.76}
{"compound": "Cc1cc(N[C@H](CO)c2ccccc2)n2nc(C)cc2n1", "systemUnderTest": "Wolbachia pipientis", "readoutUnit": "%", "recordedResult": 1.495}
{"compound": "CCc1nc(CN2CCCC(N(C)Cc3cnc(C)s3)C2)no1 (stereo unspecified)", "systemUnderTest": "Wolbachia pipientis", "readoutUnit": "%", "recordedResult": -6.39}

# credit: ChEMBL document CHEMBL3988442
